# Test system: LOX IMVI melanoma
# PROTOCOL DETAILS: NCI tumour cell line growth inhibition, 48 h

[
  {
    "MOLECULE": "CN/N=C(/Cc1occc(=O)c1O)C(=O)Nc1ccccc1C",
    "TGI": "> 100 µM"
  },
  {
    "MOLECULE": "COc1cc(-c2nn(-c3ccc(NC(=O)c4ccc(Cl)c(C(F)(F)F)c4)cc3)cc2-c2ccncc2)ccc1Cl",
    "TGI": "3.88 µM"
  },
  {
    "MOLECULE": "COc1cc(/C=N/NC(=O)c2ccc(C(F)(F)F)nc2Nc2ccc(Cl)cc2C)ccc1O",
    "TGI": "11.5 µM"
  },
  {
    "MOLECULE": "CCCCCN(CCCCC)CCCNc1c2c(nc3ccc(Cl)cc13)CCCC2",
    "TGI": "5.97 µM"
  },
  {
    "MOLECULE": "CC[C@@]1(C[C@H]2C[C@@]3(C(=O)OC)c4[nH]c5ccccc5c4CCN3C2=O)COC2(CCCCC2)O1",
    "TGI": "> 100 µM"
  },
  {
    "MOLECULE": "CCCCCN(CCCCC)CC(O)c1cc(C)c2ccc3cc(C(C)C)ccc3c2c1 (stereo not given)",
    "TGI": "3.28 µM"
  },
  {
    "MOLECULE": "Nc1cccc2cc(Cl)cnc12",
    "TGI": "> 100 µM"
  },
  {
    "MOLECULE": "CC(=O)NNc1nc(C)c(C(=O)NNC(=O)C(=O)Nc2ccc(Cl)cc2)s1",
    "TGI": "> 100 µM"
  },
  {
    "MOLECULE": "CNC(=O)OCC1=C(COC(=O)NC)C(C)N(c2ccc(OC)cc2)C1 (stereo not given)",
    "TGI": "> 100 µM"
  },
  {
    "MOLECULE": "O=C(Cc1cccs1)N[C@@H]1C(=O)N2C(C(=O)OC(c3ccccc3)c3ccccc3)=C(CO)CS[C@H]12",
    "TGI": "> 100 µM"
  }
]

====

# System: NCI-H226 lung
# PROTOCOL DETAILS: NCI tumour cell line growth inhibition, 48 h
VALUE KIND: TGI

[
  {
    "MOLECULE": "COC1=CC(=O)c2nc(-c3ccncc3)[nH]c2C1=O",
    "VALUE KIND": "TGI",
    "OBSERVED RESULT": "> 100 µM"
  },
  {
    "MOLECULE": "CC(C)/C(Cl)=N\\OC(=O)Nc1ccc(S(N)(=O)=O)cc1",
    "VALUE KIND": "TGI",
    "OBSERVED RESULT": "45.5 µM"
  },
  {
    "MOLECULE": "O=C(Nc1ccccc1OC(F)(F)F)Nc1n[nH]c2ccccc12",
    "VALUE KIND": "TGI",
    "OBSERVED RESULT": "> 100 µM"
  },
  {
    "MOLECULE": "COc1cc(-c2nn(-c3ccc(NC(=O)c4ccc(Cl)c(C(F)(F)F)c4)cc3)cc2-c2ccncc2)ccc1Cl",
    "VALUE KIND": "TGI",
    "OBSERVED RESULT": "> 100 µM"
  },
  {
    "MOLECULE": "COC1(OC)CCC2C1C1CCC(OC)(OC)C21 (stereo unspecified)",
    "VALUE KIND": "TGI",
    "OBSERVED RESULT": "> 50 µM"
  },
  {
    "MOLECULE": "[N-]=[N+]=Nc1cc(=O)oc2ccccc12",
    "VALUE KIND": "TGI",
    "OBSERVED RESULT": "> 100 µM"
  },
  {
    "MOLECULE": "CC(C)C1/C(=N/O)CC(c2ccccc2)N(N=O)C1c1ccccc1 (stereo unspecified)",
    "VALUE KIND": "TGI",
    "OBSERVED RESULT": "> 100 µM"
  },
  {
    "MOLECULE": "O=[N+]([O-])C(=C1NCCN1)/C(Cl)=C(\\Cl)Br",
    "VALUE KIND": "TGI",
    "OBSERVED RESULT": "> 100 µM"
  },
  {
    "MOLECULE": "O=C1CCC(=O)N1n1c(Cc2ccccc2)n[nH]c1=O",
    "VALUE KIND": "TGI",
    "OBSERVED RESULT": "> 100 µM"
  },
  {
    "MOLECULE": "COC(=O)c1cc2c(n1S(=O)(=O)c1ccc(C)cc1)C(=O)C(=O)c1[nH]cc(C(=O)OCc3ccccc3)c1-2",
    "VALUE KIND": "TGI",
    "OBSERVED RESULT": "0.462 µM"
  },
  {
    "MOLECULE": "Cn1cnc([N+](=O)[O-])c1Sc1nnc(-c2cccnc2)n1C",
    "VALUE KIND": "TGI",
    "OBSERVED RESULT": "> 81.6 µM"
  }
]
